System tested: T1, 4H570-AA
T1 chain: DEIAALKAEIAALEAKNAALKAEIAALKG
Experiment summary: two-hybrid library CCmax;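 also: natural log of median RNA to DNA barcode read ratio; higher means stronger binding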
Condition details: mean of both orientations
Reported endpoint: interaction score

Binder: DEIAALEAKIAALEAKNAALEAKIAALKG [4H310-AA]
Observed measurement: 1.97
--
Binder: DKIAALKAKNAALKAEIAALEAEIAALEG [4H3009-AA]
Observed measurement: -0.427
--
Binder: DKIAALEAKIAALKAENAALEAKIAALEG [4H2389-AA]
Observed measurement: 1.65
